target: FAK2 Catalytic Domain (Homo sapiens); construct: For all of them, we expressed and purified the catalytic domain separately; His-tag; made in house; host or cells: Escherichia coli; experiment: Differential Scanning Fluorimetry (DSF) Tm shift; format: binding; conditions: 2 µM protein, 10 µM inhibitor, average of 3 experiments, each in duplicate
Sequence (Q14289 425-683 limits assumed): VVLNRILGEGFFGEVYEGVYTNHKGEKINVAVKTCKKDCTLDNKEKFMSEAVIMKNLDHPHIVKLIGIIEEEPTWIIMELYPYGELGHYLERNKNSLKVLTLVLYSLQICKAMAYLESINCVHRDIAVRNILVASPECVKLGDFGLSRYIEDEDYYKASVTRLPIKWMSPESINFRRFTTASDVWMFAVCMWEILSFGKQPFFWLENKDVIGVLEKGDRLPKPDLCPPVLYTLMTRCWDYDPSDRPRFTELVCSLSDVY
Label 1 for high-side Melting temperature (Tm) shift (at or above 0.5 degrees Celcius) and -1 for low-side Melting temperature (Tm) shift (below it).

Req: Item COc1cc2ncnc(Nc3ccc(Oc4ccccc4)cc3)c2cc1OC [Src Kinase Inhibitor I] with Melting temperature (Tm) shift of 0.5 degrees Celcius or above?
Resp: 1

Req: Quick check, Melting temperature (Tm) shift >= 0.5 degrees Celcius? COc1ccc2c(c1)c1c3c(c4c5ccccc5n(C)c4c1n2CC(O)CN(C)C)C(=O)NC3=O.Cl (centres unmarked) [Gö 7874, Hydrochloride]
Resp: 1

Req: Confirm if Melting temperature (Tm) shift reported for the compound COc1cc2ncnc(Nc3ccc(NC(=O)c4ccccc4)cc3)c2cc1OC [Aurora Kinase Inhibitor II] is 0.5 degrees Celcius or above.
Resp: -1

Req: # check: Melting temperature (Tm) shift of c1cc(-c2cnn3cc(-c4ccc(OCCN5CCCCC5)cc4)cnc23)ccn1 [AMPK Inhibitor, Compound C] is greater than or equal to 0.5 degrees Celcius
Resp: -1

Req: # check: Melting temperature (Tm) shift of O=C1NC(=O)C(=Cc2ccc3c(c2)OCO3)S1 [PI 3-Kγ Inhibitor VII] is greater than or equal to 0.5 degrees Celcius
Resp: -1

Req: Given the entry O=C(c1ccc(Nc2nccc(-c3cc4ccccc4s3)n2)cc1)N1CCC(N2CCCC2)CC1 [IKK Inhibitor VII] , answer whether its Melting temperature (Tm) shift meets or surpasses 0.5 degrees Celcius.
Resp: 1

Req: Hi, just wondering whether CCn1cnc2c(Nc3cccc(Cl)c3)nc(N[C@H]3CCCC[C@H]3N)nc21 [Cdk1 Inhibitor, CGP74514A] shows Melting temperature (Tm) shift of 0.5 degrees Celcius or higher.
Resp: 1

Req: Is the recorded value of Melting temperature (Tm) shift equal to or greater than 0.5 degrees Celcius for this compound? COc1cc2ncnc(Nc3ccc(Cl)cc3Cl)c2cc1OC [Ste11 MAPKKK Activation Inhibitor]
Resp: -1
